Target: T1, Human VEGFR-3 extracellular domain (amino acids 25-329), AviTag, hexahistidine tag, biotinylated (human, UniProt P35916 25-329, biotinylated with BirA ligase (AviTag))
T1 chain (part 1 of 2): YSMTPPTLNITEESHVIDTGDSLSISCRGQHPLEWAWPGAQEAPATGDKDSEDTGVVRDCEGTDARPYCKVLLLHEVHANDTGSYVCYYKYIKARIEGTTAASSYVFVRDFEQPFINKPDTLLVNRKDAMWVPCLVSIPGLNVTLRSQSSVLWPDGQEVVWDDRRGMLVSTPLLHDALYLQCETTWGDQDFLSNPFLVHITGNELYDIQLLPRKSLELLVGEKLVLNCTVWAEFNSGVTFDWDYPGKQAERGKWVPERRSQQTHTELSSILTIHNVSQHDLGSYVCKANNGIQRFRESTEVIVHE
T1 chain (part 2 of 2): HHHHHH
Assay: yeast display flow cytometry binding
A collection of binders and their measured EC50
Quantity name: EC50 (nM)

1. Clone 15 (protein) NTEILKSIDNEWRKTQCMPREVAIDVGKEFGVATNTFFKPPCVSVYRCGGCCISEGLQCMNTSTSYLSKTLFEITVPISQGPKPVTISFANHTSCRCMSKL: 21.5
2. Clone 16 (protein) NTEILKSIDNEWRKTQCMPREVAIDVGKEFGVATNTFFKPPCVSVYRCGGCCIGEGLQCMNTSTSYLSKTLFEITVPISQGPKPVTISFANHTSCRCMSKL: 36.8
3. Clone 7 (protein) NTEILKSIDNEWRKTQCMPREVAIDVGKEFGVATNTFFKPPCVSVYRCGGCCQSEGLQCMNTSTSYLSKTLFEITVPLSQGPKPVTISFANHTSCRCMSKL: 71
4. Clone 21 (protein) NTEILKSIDNEWRKTQCMPREVAIDVGKEFGVATNTFFKPPCVSVYRCGGCCNGEGLQCMNTSTSYLSKTLFEITVPISQGPKPVTISFANHTSCRCMSKL: 44.8
5. Clone 8 (protein) NTEILKSIDNEWRKTQCMPREVAIDVGKEFGVATNTFFKPPCVSVYRCGGCCQGEGLQCMNTSTSYLSKTLFEITVPLSQGPKPVTISFANHTSCRCMSKL: 124
6. WT VEGFC (protein) NTEILKSIDNEWRKTQCMPREVCIDVGKEFGVATNTFFKPPCVSVYRCGGCCNSEGLQCMNTSTSYLSKTLFEITVPLSQGPKPVTISFANHTSCRCMSKL: 34.8
7. Clone 10 (protein) NTEILKSIDNEWRKTQCMPREVAIDVGKEFGVATNTFFKPPCVSVYRCGGCCQGEGLQCMNTSTSYLSKTLFEITVPISQGPKPVTISFANHTSCRCMSKL: 65.5
8. Clone 9 (protein) NTEILKSIDNEWRKTQCMPREVAIDVGKEFGVATNTFFKPPCVSVYRCGGCCQSEGLQCMNTSTSYLSKTLFEITVPISQGPKPVTISFANHTSCRCMSKL: 65.7
9. Clone 31 (protein) NTEILKSIDNEWRKTQCMPREVAIDVGKEFGVATNTFFKPPCVSVYRCGGCCHSEGLQCMNTSTSYLSKTLFEITVPLSQGPKPVTISFANHTSCRCMSKL: 94.5
10. Clone 39 (protein) NTEILKSIDNEWRKTQCMPREVAIDVGKEFGVATNTFFKPPCVSVYRCGGCCIREGLQCMNTSTSYLSKTLFEITVPLSQGPKPVTISFANHTSCRCMSKL: 104
11. Clone 13 (protein) NTEILKSIDNEWRKTQCMPREVAIDVGKEFGVATNTFFKPPCVSVYRCGGCCISEGLQCMNTSTSYLSKTLFEITVPLSQGPKPVTISFANHTSCRCMSKL: 32.3
